ASSAY TARGET: K-Ras (wild type) (Homo sapiens, UniProt P01116)
METHOD NOTES: MicroScale Thermophoresis (MST), GTP affinity
Format: binding
READOUT NAME: pKd
Numbers only, as −log10 of the molar value.

The molecule identified as Nc1nc2c(ncn2[C@@H]2O[C@H](COP(=O)(O)OP(=O)(O)OP(=O)(O)O)[C@@H](O)[C@H]2O)c(=O)[nH]1 registered its pKd at 6.33

====

ASSAY TARGET: KRas G12D mutant (Homo sapiens, UniProt P01116, G12D)
Construct: fused on or other part: His tag, used for capture on nickel-coated plates
METHOD NOTES: Ras GTP binding domain inhibition assay (Cy3-GTP/Cy5-GTP competition)
CONDITIONS: at 20 μM, without SOS; read-out: KRas G12D mutant: % inh.
READOUT NAME: inhibition at 20 µM

Here are 8 compounds together with their reported answers.
- COMPOUND: "COc1cc(-c2sc3nc(-c4nccn4C)nc(N4CCC(OC)C4)c3c2-c2ccccc2)ccn1 (stereo not drawn) [drawing 980]"
  ASSAY TARGET: "KRas G12D mutant (Homo sapiens, UniProt P01116, G12D)"
  READOUT NAME: "inhibition at 20 µM"
  RESULT: "51 to 75%"
- COMPOUND: "COC1CCN(c2nc(-c3nccn3C)nc3sc(-c4ccn(C)n4)c(-c4ccccc4)c23)C1 (stereo not drawn) [drawing 998]"
  ASSAY TARGET: "KRas G12D mutant (Homo sapiens, UniProt P01116, G12D)"
  READOUT NAME: "inhibition at 20 µM"
  RESULT: "1 to 25%"
- COMPOUND: "COC1CCN(c2nc(-c3nccn3C)nn3cc(-c4ccccc4)c(-c4ccccc4)c23)C1 (stereo not drawn) [drawing 931]"
  ASSAY TARGET: "KRas G12D mutant (Homo sapiens, UniProt P01116, G12D)"
  READOUT NAME: "inhibition at 20 µM"
  RESULT: "26 to 50%"
- COMPOUND: "COc1ccc(Oc2nc(-c3ccccn3)nc(O)c2OC)cc1 [drawing 950]"
  ASSAY TARGET: "KRas G12D mutant (Homo sapiens, UniProt P01116, G12D)"
  READOUT NAME: "inhibition at 20 µM"
  RESULT: "76 to 100%"
- COMPOUND: "O=C(c1nc(-c2ccccn2)nc(O)c1O)N1CCOCC1 [drawing 935]"
  ASSAY TARGET: "KRas G12D mutant (Homo sapiens, UniProt P01116, G12D)"
  READOUT NAME: "inhibition at 20 µM"
  RESULT: "26 to 50%"
- COMPOUND: "COc1cccc(-c2sc3nc(-c4nccn4C)nc(N[C@H]4C[C@@H](OC)C4)c3c2-c2ccccc2)c1F [drawing 1026]"
  ASSAY TARGET: "KRas G12D mutant (Homo sapiens, UniProt P01116, G12D)"
  READOUT NAME: "inhibition at 20 µM"
  RESULT: "26 to 50%"
- COMPOUND: "Cn1ccnc1-c1nc(O)c(O)c(C(=O)NC2CCCC2)n1 [drawing 962]"
  ASSAY TARGET: "KRas G12D mutant (Homo sapiens, UniProt P01116, G12D)"
  READOUT NAME: "inhibition at 20 µM"
  RESULT: "51 to 75%"
- COMPOUND: "COC1CCN(c2nc(-c3nccn3C)nc3sc(Br)c(-c4ccccc4)c23)C1 (stereo not drawn) [drawing 957]"
  ASSAY TARGET: "KRas G12D mutant (Homo sapiens, UniProt P01116, G12D)"
  READOUT NAME: "inhibition at 20 µM"
  RESULT: "26 to 50%"

Now consider the entry below.
The measured inhibition at 20 µM that Cc1cn(C)c(-c2nc(O)c3scc(-c4ccccn4)c3n2)n1 [drawing 942] showed for KRas G12D mutant (Homo sapiens, UniProt P01116, G12D) is 76 to 100%
